# testName: AUC (0 to t) in Sprague-Dawley rat at 25 mg/kg, po by LC-MS/MS analysis
# Type: ADME, organism-based
# Parameters: dose 25 mg/kg, route po
# measurementContext: in vivo

| givenSmiles | measurementUnits | AUC(0-t) |
| --- | --- | --- |
| NS(=O)(=O)NCCNc1nonc1C(=NO)Nc1ccc(F)c(Br)c1 | ng·h/mL | 472 |
| CCNC(=O)Nc1nonc1/C(=N/O)Nc1ccc(F)c(Br)c1 | ng·h/mL | 2220 |

====

# testName: Volume of distribution in Sprague-Dawley rat at 5 mg/kg, iv by LC-MS/MS analysis
# Type: ADME, organism-based
# measurementContext: in vivo
property: Vd

| givenSmiles | measurement |
| --- | --- |
| CCNC(=O)Nc1nonc1/C(=N/O)Nc1ccc(F)c(Br)c1 | 4.01 L/kg |
| NS(=O)(=O)NCCNc1nonc1C(=NO)Nc1ccc(F)c(Br)c1 | 5.73 L/kg |
